meta.source: the supplement of paper PMC10883282

I'd appreciate it if you could supply relative viability values for the items below.
System: SYO-1
Assay: relative viability vs DMSO control (72 h) (fraction); higher = more viable cells
Conditions: 0.01372 µM

In plain terms, COC(=O)c1ccc2c(c1)NC(=O)/C2=C(\Nc1ccc(N(C)C(=O)CN2CCN(C)CC2)cc1)c1ccccc1 has a documented relative viability of 0.901

In plain terms, Cn1cnc2c(F)c(Nc3ccc(Br)cc3Cl)c(C(=O)NOCCO)cc21 has a documented relative viability of 0.896

In plain terms, COc1cc2ncnc(Nc3ccc(F)c(Cl)c3)c2cc1OCCCN1CCOCC1 has a documented relative viability of 0.999

In plain terms, Cc1c2oc3c(C)ccc(C(=O)N[C@@H]4C(=O)N[C@H](C(C)C)C(=O)N5CCC[C@H]5C(=O)N(C)CC(=O)N(C)[C@@H](C(C)C)C(=O)O[C@@H]4C)c3nc-2c(C(=O)N[C@@H]2C(=O)N[C@H](C(C)C)C(=O)N3CCC[C@H]3C(=O)N(C)CC(=O)N(C)[C@@H](C(C)C)C(=O)O[C@@H]2C)c(N)c1=O has a documented relative viability of 0.259

In plain terms, CNC(=O)c1c(C)oc2cc(Oc3ncnc4cc(OC)c(OC)cc34)ccc12 has a documented relative viability of 0.921

In plain terms, COc1cc(Nc2ncc3c(n2)-c2ccc(Cl)cc2C(c2c(F)cccc2OC)=NC3)ccc1C(=O)O has a documented relative viability of 0.826

In plain terms, CN(C)C(=O)c1cc2cnc(Nc3ccc(N4CCNCC4)cn3)nc2n1C1CCCC1 has a documented relative viability of 0.923

In plain terms, O=C(/C=C\n1cnc(-c2cc(C(F)(F)F)cc(C(F)(F)F)c2)n1)NNc1cnccn1 [Selinexor] has a documented relative viability of 0.804
